Measured viability at 4 days, 30 μM accompanies every entry in the list below.
- MEASUREMENT_DESCRIPTION: in vitro

- CC(C)C1=C2[C@H]3CC[C@@H]4[C@@]5(C)CC[C@H](OC(=O)[C@H]6C[C@@H](C(=O)O)C6(C)C)C(C)(C)[C@@H]5CC[C@@]4(C)[C@]3(C)CC[C@@]2(C(=O)NC(C)(C)c2ncc(-c3ccc(Cl)cc3)[nH]2)CC1=O: 3%
- CC(C)C1=C2[C@H]3CC[C@@H]4[C@@]5(C)CC[C@H](OC(=O)[C@H]6C[C@@H](C(=O)O)C6(C)C)C(C)(C)[C@@H]5CC[C@@]4(C)[C@]3(C)CC[C@@]2(C(=O)N2CCC[C@H]2C(C)(C)O)CC1=O: 9%

For reference, reported viability at 4 days, 30 μM for "CC(C)C1=C2[C@H]3CC[C@@H]4[C@@]5(C)CC[C@H](OC(=O)[C@H]6C[C@@H](C(=O)O)C6(C)C)C(C)(C)[C@@H]5CC[C@@]4(C)[C@]3(C)CC[C@@]2(C(=O)N2CCC[C@H]2CN2CCC(F)(F)C2)CC1=O" stands at 10%

Reported viability at 4 days, 30 μM of "CC(C)C1=C2[C@H]3CC[C@@H]4[C@@]5(C)CC[C@H](OC(=O)[C@H]6C[C@@H](C(=O)O)C6(C)C)C(C)(C)[C@@H]5CC[C@@]4(C)[C@]3(C)CC[C@@]2(C(=O)N2CC[C@@H](N3CCCC3)C2)CC1=O" : 6%

compound "CC(C)C1=C2[C@H]3CC[C@@H]4[C@@]5(C)CC[C@H](OC(=O)[C@H]6C[C@@H](C(=O)O)C6(C)C)C(C)(C)[C@@H]5CC[C@@]4(C)[C@]3(C)CC[C@@]2(C(=O)NC(C)(C)c2ncc(-c3ccccc3)[nH]2)CC1=O" , viability at 4 days, 30 μM observed: 5%

viability at 4 days, 30 μM measured on "CC(C)C1=C2[C@H]3CC[C@@H]4[C@@]5(C)CC[C@H](OC(=O)[C@H]6C[C@@H](C(=O)O)C6(C)C)C(C)(C)[C@@H]5CC[C@@]4(C)[C@]3(C)CC[C@@]2(C(=O)N2CCC[C@H]2c2ncc(-c3ccc(F)cc3)[nH]2)CC1=O" = 100%

Form field viability at 4 days, 30 μM, entry "CC(C)C1=C2[C@H]3CC[C@@H]4[C@@]5(C)CC[C@H](OC(=O)[C@H]6C[C@@H](C(=O)O)C6(C)C)C(C)(C)[C@@H]5CC[C@@]4(C)[C@]3(C)CC[C@@]2(C(=O)N2CCC[C@H]2c2ncc(-c3cccnc3)[nH]2)CC1=O" : 67%
